Where a name gives a salt, the structure may show the parent alone.
As shown below, each of these compounds has a reported melting point value.

compound	unit-tag	melting point
CC(C)S(=O)(=O)c1ccc2c(c1)nc(CC1CCCC1)n2CC1CC1	°C	137
CCS(=O)(=O)c1ccc2c(c1)nc(CC(C)(C)C)n2CCOC(F)(F)F	°C	133
CC(C)S(=O)(=O)c1cnc2c(c1)nc(CC(C)(C)C)n2CC1CCOCC1	°C	201
CC(C)S(=O)(=O)c1cnc2c(c1)nc(CC(C)(C)C)n2CC1(O)CCOCC1	°C	179
CC(C)S(=O)(=O)c1ccc2c(c1)nc(CC1CC1)n2CC1CC1	°C	107
CC(C)S(=O)(=O)c1ccc2c(c1)nc(CC(C)(C)C)n2CCN(C)C	°C	116
CC(C)(C)Cc1nc2cc(S(=O)(=O)c3ccccc3)ccc2n1CC1CC1	°C	173
CCS(=O)(=O)c1ccc2c(c1)nc(CC(C)(C)C)n2CC1CCCO1 (stereo not drawn)	°C	142
CCS(=O)(=O)c1cnc2c(c1)nc(CC(C)(C)C)n2CC1CCOCC1	°C	191
CC(C)S(=O)(=O)c1ccc2c(c1)nc(CC(C)(C)C)n2CC1(O)CCOCC1	°C	189
CCS(=O)(=O)c1ccc2c(c1)nc(CC(C)(C)C)n2CC1(O)CCCC1	°C	172
CC(C)S(=O)(=O)c1ccc2c(c1)nc(CC(C)(C)C)n2CCN1CCOCC1	°C	151
CC(C)S(=O)(=O)c1cnc2c(c1)nc(CC(C)(C)C)n2CCN(C)C	°C	119
CC(C)S(=O)(=O)c1ccc2c(c1)nc(CC1(C)CCCC1)n2CC1CC1	°C	122
CC(C)(C)Cc1nc2cc(S(C)(=O)=O)ccc2n1CC1CC1 (as salt: hydrochloride)	°C	217
